Experiment: Clearance in Sprague-Dawley rat at 2 mg/kg, iv by LC-MS analysis
Type: ADME, organism-based
Conditions: in vivo
reported-endpoint: clearance (mL/min/kg)

INSERT INTO measurements (smi, reported_endpoint, readout_value) VALUES
  ('CN1CC[C@@H](N2C(=O)S/C(=C\c3ccc4c(cnn4Cc4ccc(Cl)cc4C(F)(F)F)c3)C2=O)[C@H](F)C1', 'clearance', 23);

###

Biological target: Peroxisome proliferator-activated receptor alpha (Homo sapiens)
Sequence (Q07869 whole entry, the tested form may be a part): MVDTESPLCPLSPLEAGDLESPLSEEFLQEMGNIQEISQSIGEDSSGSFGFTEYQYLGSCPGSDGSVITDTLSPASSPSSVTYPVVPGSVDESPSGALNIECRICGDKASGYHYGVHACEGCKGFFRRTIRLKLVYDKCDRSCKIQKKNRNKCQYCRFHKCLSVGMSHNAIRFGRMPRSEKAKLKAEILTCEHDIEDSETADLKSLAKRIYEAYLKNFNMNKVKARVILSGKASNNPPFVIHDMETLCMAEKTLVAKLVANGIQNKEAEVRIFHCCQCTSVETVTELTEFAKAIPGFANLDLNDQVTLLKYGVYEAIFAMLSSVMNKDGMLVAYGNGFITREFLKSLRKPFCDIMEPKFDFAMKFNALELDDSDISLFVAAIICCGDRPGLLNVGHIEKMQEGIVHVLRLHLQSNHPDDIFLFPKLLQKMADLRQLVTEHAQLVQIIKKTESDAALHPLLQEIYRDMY
Assay: Antagonist activity at recombinant GST-tagged human PPARalpha LBD assessed as inhibition of GW7647-induced fluorescein-labeled coactivator peptide recruitment preincubated with enzyme followed by coactivator addition by LanthaScreen TR-FRET assay
reported-endpoint: IC50

INSERT INTO assay_data (smi, system_name, readout_value) VALUES
  ('CN1CC[C@@H](N2C(=O)S/C(=C\c3ccc4c(cnn4Cc4ccc(Cl)cc4C(F)(F)F)c3)C2=O)[C@H](F)C1', 'Peroxisome proliferator-activated receptor alpha (Homo sapiens)', '> 10 µM');

###

Assay: AUC (0 to 24 hrs) in […] model at 3 mg/kg, po qd for 28 days measured on day 28 post last dose
Type: ADME, organism-based
Design: dose 3 mg/kg, time < 24 hr, route oral
Details: in vivo
reported-endpoint: AUC at 24 h (ng·h/mL)

INSERT INTO assay_data (smi, readout_value) VALUES
  ('CN1CC[C@@H](N2C(=O)S/C(=C\c3ccc4c(cnn4Cc4ccc(Cl)cc4C(F)(F)F)c3)C2=O)[C@H](F)C1', 2150);

###

Test: AUC (0 to 24 hrs) in Zucker rat sub-chronic fa/fa prediabetic model at 50 mg/kg, po qd for 26 days measured on day 26 post last dose
Assay type: ADME, organism-based
Design: dose 50 mg/kg, time < 24 hr, route oral
Conditions: in vivo
reported-endpoint: AUC at 24 h (ng·h/mL)

INSERT INTO measurements (smi, unit_abbrev, readout_value) VALUES
  ('CN1CC[C@@H](N2C(=O)S/C(=C\c3ccc4c(cnn4Cc4ccc(Cl)cc4C(F)(F)F)c3)C2=O)[C@H](F)C1', 'ng·h/mL', 85900);

###

Target: Oxysterols receptor LXR-beta (Homo sapiens, UniProt P55055)
Sequence (P55055 whole entry, the tested form may be a part): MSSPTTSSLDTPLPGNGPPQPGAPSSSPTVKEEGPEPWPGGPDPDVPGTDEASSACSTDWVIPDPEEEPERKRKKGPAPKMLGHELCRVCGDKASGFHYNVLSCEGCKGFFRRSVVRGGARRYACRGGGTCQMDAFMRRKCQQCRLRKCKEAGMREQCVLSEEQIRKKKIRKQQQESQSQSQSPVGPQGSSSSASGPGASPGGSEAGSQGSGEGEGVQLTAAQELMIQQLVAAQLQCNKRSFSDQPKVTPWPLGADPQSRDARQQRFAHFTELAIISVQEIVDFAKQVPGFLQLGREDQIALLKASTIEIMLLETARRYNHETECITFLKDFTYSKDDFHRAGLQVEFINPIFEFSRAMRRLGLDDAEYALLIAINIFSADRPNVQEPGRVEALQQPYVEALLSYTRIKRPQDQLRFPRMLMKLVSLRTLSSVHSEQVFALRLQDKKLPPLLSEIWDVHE
Experiment: Antagonist activity at recombinant GST-tagged human LXRbeta LBD assessed as inhibition of TO901317-induced fluorescein-labeled coactivator peptide recruitment preincubated with enzyme followed by coactivator addition by LanthaScreen TR-FRET assay
pIC50: −log10 of the molar value.
reported-endpoint: pIC50

INSERT INTO assay_data (smi, system_name, reported_endpoint, readout_value) VALUES
  ('CN1CC[C@@H](N2C(=O)S/C(=C\c3ccc4c(cnn4Cc4ccc(Cl)cc4C(F)(F)F)c3)C2=O)[C@H](F)C1', 'Oxysterols receptor LXR-beta (Homo sapiens, UniProt P55055)', 'pIC50', '< 5.00');

###

Test: Cmax in […] chronic ob/ob model at 50 mg/kg, po qd measured on day 1 post dose
Type: ADME, organism-based
Parameters: dose 50 mg/kg, route oral
Conditions: in vivo
reported-endpoint: Cmax (ng/mL)

INSERT INTO measurements (smi, reported_endpoint, readout_value) VALUES
  ('CN1CC[C@@H](N2C(=O)S/C(=C\c3ccc4c(cnn4Cc4ccc(Cl)cc4C(F)(F)F)c3)C2=O)[C@H](F)C1', 'Cmax', 2680);
